Below, each of the compounds is paired with its reported log10 of IC50 value.
Biological target: hIBAT (Homo sapiens)
Construct: kept under Puromycin selection
Sequence (Q12908 whole entry): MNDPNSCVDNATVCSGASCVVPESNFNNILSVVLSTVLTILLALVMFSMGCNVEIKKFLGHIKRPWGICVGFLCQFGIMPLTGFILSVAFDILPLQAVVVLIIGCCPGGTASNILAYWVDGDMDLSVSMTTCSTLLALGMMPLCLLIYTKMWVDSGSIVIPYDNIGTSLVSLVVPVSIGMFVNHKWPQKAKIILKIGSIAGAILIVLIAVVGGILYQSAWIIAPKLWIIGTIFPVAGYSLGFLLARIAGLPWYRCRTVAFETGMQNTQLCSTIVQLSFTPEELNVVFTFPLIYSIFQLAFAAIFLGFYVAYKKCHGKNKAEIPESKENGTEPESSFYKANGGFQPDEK
Test: IBAT (h/m) assay, 3H-taurocholic acid uptake in human IBAT-overexpressing cells
Details: 0.25 μM 3H-taurocholic acid and 5 μM cold taurocholic acid, 20 minutes
Record value = log10 of IC50 given in nM.

Sample records with log10 of IC50:
compound	recorded_result
CCCC[C@@]1(CC)CN(c2ccccc2)c2cc(N(C)C)c(O/C=C/C(=O)O)cc2S(=O)(=O)N1.CCCC[C@]1(CC)CN(c2ccccc2)c2cc(N(C)C)c(O/C=C/C(=O)O)cc2S(=O)(=O)N1 (mixture of isomers) [Example 14]	0.78
CCC1(C(C)C)CN(c2ccccc2)c2cc(SC)c(O/C=C(\F)C(=O)O)cc2S(=O)(=O)C1 (stereo not shown)	2.58
CCCCC1(CC)CN(c2ccccc2)c2cc(N(C)C)c(O/C=C/C(=O)O)cc2S(=O)(=O)N1 (stereo not shown)	1.11
CCC[C@@]1(CC)CN(c2ccccc2)c2cc(SC)c(O/C=C(\F)C(=O)O)cc2S(=O)(=O)C1.CCC[C@]1(CC)CN(c2ccccc2)c2cc(SC)c(O/C=C(\F)C(=O)O)cc2S(=O)(=O)C1 (mixture of isomers) [Example 19]	2.45
CCCCC1(CCCC)CN(c2ccc(F)cc2)c2cc(SC)c(O/C=C(\F)C(=O)O)cc2S(=O)(=O)C1	1.32

Need log10 of IC50 of CCCCC1(CC)CN(c2ccc(F)cc2)c2cc(SC)c(O/C=C/C(=O)O)cc2S(=O)(=O)C1 (stereo not shown) , thanks.
0.85

Query: log10 of IC50; subject: CCC1(C(C)C)CN(c2ccccc2)c2cc(SC)c(O/C=C/C(=O)O)cc2S(=O)(=O)C1 (stereo not shown)
2.75

Query: log10 of IC50; subject: CCC[C@@]1(CC)CN(c2ccccc2)c2cc(SC)c(O/C=C(\F)C(=O)O)cc2S(=O)(=O)C1.CCC[C@]1(CC)CN(c2ccccc2)c2cc(SC)c(O/C=C(\F)C(=O)O)cc2S(=O)(=O)C1 (mixture of isomers) [Example 18]
2.53

The measured values listed here are drawn from patent US11267794B2.
